RECORDED ENDPOINT: melting point

Recorded results for 8 molecules are shown here.
molecule=Cc1cc(C(=O)O)c(Cl)c([N+](=O)[O-])c1C value_measured="160 to 163 °C"
molecule=O=S(=O)(Cl)c1nc2nc(OCC(F)(F)F)ccn2n1 value_measured="91 to 96 °C"
molecule=CN(C)Cc1nc(C(=O)O)nn1-c1ccc(Cl)cc1C(=O)c1ccccc1 value_measured="160 to 165 °C"
molecule=OC(c1ccc(F)cc1)(c1ccc(F)cc1)C1CCN(CCCOc2ccc(-c3ccccc3)cc2)CC1 value_measured="108 to 109 °C"
molecule=COC(=S)c1cc(N)ccc1C value_measured="96 to 98 °C"
molecule=Cc1ncc2cc(-c3ccccc3Cl)c(N)nc2n1 value_measured="259 to 260 °C"
molecule="CCOP(=O)(OCC)C(Cc1cc(C)c(O)c(OC)c1)c1cccnc1 (stereo not given)" value_measured="85 to 87 °C"
molecule=CCOC(=O)C1=C[C@@H](OC(CC)CC)[C@@H](NC(C)=O)[C@H](N=[N+]=[N-])[C@@H]1O value_measured="112 to 115 °C"

Please fill in: melting point reported for NC1=NN(c2nc3ccccc3s2)C(c2ccccc2)C1 (stereo not given) = 270 to 272 °C

Please fill in: melting point reported for O=[N+]([O-])c1cc(-c2ccoc2)ccc1Nc1cccc(-n2cccc2)c1 = 129 to 131 °C

Please fill in: melting point reported for O=C1OC2(CCN(C(=O)Nc3ncc(-c4ccccc4)cn3)CC2)c2c(F)cccc21 = 244 to 246 °C
